- Tested on: COLO 205
- assay details: Antiproliferative activity against human COLO 205 cells assessed as reduction in cell growth
- Assay type: functional
Mark label 1 only for GI50 values smaller than 2000 nM; exact matches and larger values are label 0.

O=C(NCCCNc1cc(-c2cn(-c3ccccc3)nc2-c2cccc(O)c2)ccn1)c1ccccc1    label 1
COc1cccc(-c2nn(-c3ccccc3)cc2-c2ccnc(NCCCNC(=O)c3cccc(C(F)(F)F)c3)c2)c1    label 0
COc1cccc(-c2nn(-c3ccccc3)cc2-c2ccnc(NCCNC(=O)Nc3cccc(C(F)(F)F)c3)c2)c1    label 1
O=C(NCCCNc1cc(-c2cn(-c3ccccc3)nc2-c2cccc(O)c2)ccn1)c1ccc(F)cc1    label 1
COc1cccc(-c2nn(-c3ccccc3)cc2-c2ccnc(NCCCNC(=O)Nc3ccc(Cl)c(Cl)c3)c2)c1    label 1

----------
- System: HOP-92
- assay details: Antiproliferative activity against human HOP-92 cells assessed as total growth inhibition
- Format: functional
measurement type: TGI (µM)

O=C(NCCCNc1cc(-c2cn(-c3ccccc3)nc2-c2cccc(O)c2)ccn1)c1ccc(F)cc1    3.28
COc1cccc(-c2nn(-c3ccccc3)cc2-c2ccnc(NCCNC(=O)Nc3cccc(C(F)(F)F)c3)c2)c1    7.65
COc1cccc(-c2nn(-c3ccccc3)cc2-c2ccnc(NCCCNC(=O)Nc3ccc(Cl)c(Cl)c3)c2)c1    7.68
O=C(NCCCNc1cc(-c2cn(-c3ccccc3)nc2-c2cccc(O)c2)ccn1)c1ccccc1    24.5

----------
Recorded GI50, one value per entry.
- Tested on: Panel CNS (Carcinoma cell lines)
- assay details: Antiproliferative activity against human Panel CNS (6 Carcinoma cell lines) assessed as reduction in mean cell growth
- Assay type: functional
measurement type: GI50 (µM)

COc1cccc(-c2nn(-c3ccccc3)cc2-c2ccnc(NCCCNC(=O)Nc3ccc(Cl)c(Cl)c3)c2)c1    2.93
CNC(=O)c1cc(Oc2ccc(NC(=O)Nc3ccc(Cl)c(C(F)(F)F)c3)cc2)ccn1    2.33
COc1cccc(-c2nn(-c3ccccc3)cc2-c2ccnc(NCCNC(=O)Nc3ccc(Cl)c(Cl)c3)c2)c1    7.19
COc1cccc(-c2nn(-c3ccccc3)cc2-c2ccnc(NCCNC(=O)Nc3cccc(C(F)(F)F)c3)c2)c1    2.07
O=C(NCCCNc1cc(-c2cn(-c3ccccc3)nc2-c2cccc(O)c2)ccn1)c1ccc(F)cc1    3.29
O=C(NCCCNc1cc(-c2cn(-c3ccccc3)nc2-c2cccc(O)c2)ccn1)c1ccccc1    3.6

----------
- System: MDA-MB-468
- assay details: Antiproliferative activity against human MDA-MB-468 cells assessed as total growth inhibition
- Format: functional
measurement type: TGI (µM)

COc1cccc(-c2nn(-c3ccccc3)cc2-c2ccnc(NCCNC(=O)Nc3cccc(C(F)(F)F)c3)c2)c1    3.5
COc1cccc(-c2nn(-c3ccccc3)cc2-c2ccnc(NCCCNC(=O)Nc3ccc(Cl)c(Cl)c3)c2)c1    4.34
O=C(NCCCNc1cc(-c2cn(-c3ccccc3)nc2-c2cccc(O)c2)ccn1)c1ccccc1    3.36
O=C(NCCCNc1cc(-c2cn(-c3ccccc3)nc2-c2cccc(O)c2)ccn1)c1ccc(F)cc1    3.43

----------
- Test system: RXF 393
- assay details: Antiproliferative activity against human RXF 393 cells assessed as total growth inhibition
- Assay type: functional
measurement type: TGI (µM)

COc1cccc(-c2nn(-c3ccccc3)cc2-c2ccnc(NCCCNC(=O)Nc3ccc(Cl)c(Cl)c3)c2)c1    4.87
O=C(NCCCNc1cc(-c2cn(-c3ccccc3)nc2-c2cccc(O)c2)ccn1)c1ccc(F)cc1    3.03
O=C(NCCCNc1cc(-c2cn(-c3ccccc3)nc2-c2cccc(O)c2)ccn1)c1ccccc1    6.2
CNC(=O)c1cc(Oc2ccc(NC(=O)Nc3ccc(Cl)c(C(F)(F)F)c3)cc2)ccn1 [SORAFENIB]    10
COc1cccc(-c2nn(-c3ccccc3)cc2-c2ccnc(NCCNC(=O)Nc3cccc(C(F)(F)F)c3)c2)c1    4.63
